Molecular target: CCR-3 receptor (Homo sapiens)
Construct: expressed in transfected cells; host or cells: L1.2 (murine pre-B lymphoma line)
Sequence (P51677 1-355): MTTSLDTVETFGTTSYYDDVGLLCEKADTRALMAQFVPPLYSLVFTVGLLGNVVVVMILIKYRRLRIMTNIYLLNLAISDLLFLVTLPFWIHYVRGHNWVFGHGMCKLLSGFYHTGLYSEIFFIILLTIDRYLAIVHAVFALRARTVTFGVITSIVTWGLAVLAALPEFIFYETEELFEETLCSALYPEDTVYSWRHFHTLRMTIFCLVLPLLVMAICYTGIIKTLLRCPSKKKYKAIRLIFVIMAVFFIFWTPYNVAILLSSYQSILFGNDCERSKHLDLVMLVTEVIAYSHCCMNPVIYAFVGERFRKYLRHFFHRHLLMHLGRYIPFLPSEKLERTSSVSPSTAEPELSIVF
Experiment: CCR-3 Receptor Binding Assay in vitro (inhibition of 125I eotaxin binding to CCR-3 L1.2 transfectant cells)
Conditions: concentration reducing 125I-eotaxin binding to CCR-3 L1.2 transfected cells by 50%; read-out: CCR-3 IC50
List of IC50 values.
readoutKind: IC50 (nM)

{"columns": ["molecule", "readoutKind", "readoutNumber"],
 "data": [
  ["O=C(CSc1ncc(-c2ccccc2)cn1)NCC1CCCN(Cc2ccc(O)c(O)c2)C1 (centres unmarked)", "IC50", 1350],
  ["COc1cccc(-c2cnc(OCC(=O)NCC3CCCN(Cc4cccc(Cl)c4Cl)C3)nc2)c1 (centres unmarked)", "IC50", 5740],
  ["COc1ccc(-c2cnc(SCC(=O)NCC3CCCN(Cc4ccc5c(c4)OCO5)C3)nc2)cc1OC (centres unmarked)", "IC50", 205],
  ["COc1ccc(-c2cnc(SCC(=O)NCC3CCCN(Cc4ccc(Cl)c(Cl)c4)C3)nc2)cc1OC (centres unmarked)", "IC50", 29],
  ["COc1ccc(-c2cnc(SCC(=O)NCC3CCCN(Cc4cc(Br)c(Br)s4)C3)nc2)cc1OC (centres unmarked)", "IC50", 66],
  ["COc1ccc(-c2cnc(CCC(=O)NCC3CCCN(Cc4ccc(Cl)c(Cl)c4)C3)nc2)cc1OC (centres unmarked) [Compound 10]", "IC50", 164],
  ["O=C(CSc1ncc(-c2ccccc2)cn1)NCC1CCCN(Cc2ccc3c(c2)OCO3)C1 (centres unmarked)", "IC50", 1560],
  ["COc1ccc(-c2cnc(CCC(=O)NCC3CCCN(Cc4cccc(Cl)c4Cl)C3)nc2)cc1 (centres unmarked)", "IC50", 403],
  ["COc1ccc(-c2cnc(SCC(=O)NCC3CCCN(Cc4ccc5ccccc5c4)C3)nc2)cc1OC (centres unmarked)", "IC50", 263],
  ["COc1ccc(-c2cnc(CCC(=O)NCC3CCCN(Cc4ccc(Br)c(Br)c4)C3)nc2)cc1OC (centres unmarked)", "IC50", 107],
  ["COc1ccc(-c2cnc(SCC(=O)NCC3CCCN(Cc4ccccc4)C3)nc2)cc1OC (centres unmarked)", "IC50", 1060],
  ["COc1ccc(-c2cnc(CCC(=O)NCC3CCCN(Cc4ccc5c(c4)OCO5)C3)nc2)cc1 (centres unmarked)", "IC50", 2080],
  ["COc1ccc(-c2cnc(SCC(=O)NCC3CCCN(Cc4ccc5c(c4)CCC5)C3)nc2)cc1OC (centres unmarked)", "IC50", 276],
  ["O=C(CSc1ncc(-c2ccccc2)cn1)NCC1CCCN(Cc2ccc(Cl)c(C(F)(F)F)c2)C1 (centres unmarked)", "IC50", 2410]
]}
